Test system: MDA-MB-435
Assay: NCI tumour cell line growth inhibition, 48 h
The source made the active and inactive calls. Rule as the data show it: active = GI50 up to about 1.1 µM and inactive = higher.
Pick from True for active, False for inactive when you respond.

## Task Short answer needed: outcome of this test for Cc1ccc(NC(=O)C(Cc2c[nH]c3ccccc23)NC(=O)Oc2ccccc2)cc1C (stereo not drawn) ?
## Result False

## Task Short answer needed: outcome of this test for CO[C@H]1[C@@H](O)[C@@H](C)O[C@@H](O[C@H]2CC[C@@]3(C)[C@H](CC[C@@H]4[C@@H]3CC[C@]3(C)[C@@H](C5=CC(=O)OC5)CC[C@]43O)C2)[C@@H]1O [ODOROSIDE H] ?
## Result True

## Task Short answer needed: outcome of this test for O=C1CCCc2cc3c(cc21)CC1(C3)Cc2ccc3c(c2C1)C(=O)CCC3 (stereo not drawn) ?
## Result False

## Task Short answer needed: outcome of this test for `COc1cc(OCc2nc3ccccc3n3cccc23)cc(OC)c1OC` ?
## Result False

## Task Short answer needed: outcome of this test for `Cc1ccc(C2(c3ccc(C)c(O)c3C)CCN(C)CC2)c(C)c1O` ?
## Result False

## Task Short answer needed: outcome of this test for `FC(F)(F)c1ccc(Cc2nc3cc4ccccc4cc3[nH]2)cc1` ?
## Result False

## Task Short answer needed: outcome of this test for COC(=O)C1Cc2c(C)cccc2C1=O (stereo not drawn) ?
## Result False

## Task Short answer needed: outcome of this test for `CSc1n[nH]c2[nH]nc(C)c12` ?
## Result False
